# Test system: K562
# Assay Name: NCI tumour cell line growth inhibition, 48 h
Activity calls are given as the source filed them. Rule as the data show it: active = GI50 up to about 1.1 µM and inactive = higher.
The categories you may choose from are 1 for active, 0 for inactive

Nc1nc2c(-c3ccc([N+](=O)[O-])cc3)nnn2c2ccccc12 :: 0

Req: Returns: the outcome recorded for CC1=NN(C(=O)c2ccccc2O)C(=O)/C1=C/c1c(O)ccc2ccccc12 in this assay.
Resp: 0

Req: What call does the record list for O=C1C=C(Sc2ccccc2)c2nccc3c2c1nc1ccccc13 ?
Resp: 1

Req: Called result for O=C1C=C(Nc2ccc(S(=O)(=O)Nc3nccs3)cc2)c2ccccc2C1=O
Resp: 0

Req: Given COc1ccc(/C=C\c2cc(OC)c(OC)c(OC)c2)cc1OC(=O)CC(N)C(=O)O (stereo not given) , state the outcome it received in this test.
Resp: 1

Req: Assay outcome for O=C(CNC(=O)OCc1ccccc1)Oc1ccccc1 : what was it?
Resp: 0

Req: // param item: Cn1[nH]nn/c1=N\N=C\c1ccccc1 ; yields the recorded call
Resp: 0

Req: For this compound, state the assay outcome: N#C/C=C1\C=CC(O)C(O)C1OC1OC(CO)C(O)C(O)C1O (stereo not given)
Resp: 0

Req: What is the recorded call for this compound in the test? O=C(CSCC(=O)N/N=C\c1cc(Br)cc(Br)c1O)N/N=C\c1cc(Br)cc(Br)c1O
Resp: 0

Req: Outcome logged for BrC1=CC=C2NCCCCCC/N=C3\C=CC(Br)=CC=C3NCCCCCC/N=C\2C=C1 in this assay:
Resp: 0
